Where do the numbers come from? From PubChem BioAssay AID624360.

experiment: IL-1beta-induced NF-kB reporter signal decrease – LMP1 TES2-inducible cells, luciferase, dry powder, selectivity assay for EBV LMP1 NF-kB inhibitor project, dose response (AID 624360); settings: HEK293 IL-1beta-induced NF-kB luciferase reporter (LMP1 TES2-inducible cell line), 16 h; at 26 µM (top of the series)
Results filed as inconclusive are left out.
The threshold is inclusive: activity change, negative = inhibition of exactly 20% counts as fulfilled; values below receive not fulfilled.

- C[C@@H]1CCCCO[C@H](CN(C)CC2CCCCC2)[C@H](C)CN([C@@H](C)CO)C(=O)c2cc(NC(=O)NC3CCCCC3)ccc2O1: not fulfilled

Asked: Given "C[C@@H]1CN([C@@H](C)CO)C(=O)c2cc(NC(=O)Nc3ccc(C(F)(F)F)cc3)ccc2O[C@@H](C)CCCCO[C@H]1CN(C)Cc1ccc(C(F)(F)F)cc1" , state whether its activity change, negative = inhibition is at least 20%.
Given back: not fulfilled

Asked: Kindly determine if activity change, negative = inhibition recorded for "c1ccc(-c2cn3c4c(sc3n2)CCCC4)cc1" is above or exactly 20%.
Given back: not fulfilled

Asked: Is the recorded value of activity change, negative = inhibition equal to or greater than 20% for this compound? "C=CCN1Cc2ccccc2[C@@H]2OC(c3ccc(OCCCO)cc3)=N[C@]2(CCC(=O)OC(C)(C)C)C1=O"
Given back: fulfilled

Asked: Is the recorded value of activity change, negative = inhibition equal to or greater than 20% for this compound? "CCc1ccc(/C=C2\SC(=S)N(CCCC(=O)Nc3ccccn3)C2=O)cc1"
Given back: fulfilled

Asked: Hello, I need to know if "Cc1c(NC(=O)c2cccc(NC(=O)COc3ccccc3C#N)c2)c(=O)n(-c2ccccc2)n1C" has measured activity change, negative = inhibition not below 20%. Thanks!
Given back: not fulfilled

Asked: // inclusive: activity change, negative = inhibition at least 20%? input: "CCc1sc(C(=O)Nc2ncccc2O)cc1C"
Given back: not fulfilled

Asked: Decide: activity change, negative = inhibition of "C[C@@H]1CCCCO[C@H](CN(C)S(=O)(=O)c2ccccc2)[C@@H](C)CN([C@@H](C)CO)C(=O)c2cc(N(C)C)ccc2O1" >= 20%?
Given back: not fulfilled
